- TARGET ENTITY: human CD33 N20T (human, UniProt P20138 18-364)
- Sequence (P20138 18-364 N20T limits assumed): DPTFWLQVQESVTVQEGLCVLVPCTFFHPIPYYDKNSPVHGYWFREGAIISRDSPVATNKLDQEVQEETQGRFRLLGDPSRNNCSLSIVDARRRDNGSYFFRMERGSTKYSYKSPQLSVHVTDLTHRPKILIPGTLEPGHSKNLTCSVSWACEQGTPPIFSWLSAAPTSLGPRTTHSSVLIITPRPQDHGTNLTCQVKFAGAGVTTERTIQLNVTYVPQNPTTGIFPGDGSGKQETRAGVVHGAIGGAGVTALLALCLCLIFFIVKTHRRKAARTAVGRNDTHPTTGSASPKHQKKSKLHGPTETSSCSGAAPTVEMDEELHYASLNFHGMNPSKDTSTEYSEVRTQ
- ASSAY DETAILS: flow cytometry, mutant on cells, IgG
The reader will find reported Mean % WT Binding values listed item by item below.
Could you kindly put the unit after your number?

Would you please look over these solved cases?
[[record]]
binder = "Refmab #4 (antibody, human IgG1, V domains shown, Tested in IgG format; human IgG1 Fc silent (PG-LALA)) VH: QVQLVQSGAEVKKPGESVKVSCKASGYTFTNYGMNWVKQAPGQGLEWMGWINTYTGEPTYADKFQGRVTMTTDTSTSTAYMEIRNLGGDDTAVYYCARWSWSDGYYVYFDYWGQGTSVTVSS VL: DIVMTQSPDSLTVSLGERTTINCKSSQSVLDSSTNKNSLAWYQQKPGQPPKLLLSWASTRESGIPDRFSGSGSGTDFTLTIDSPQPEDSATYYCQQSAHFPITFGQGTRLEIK"
result = "92.1 % WT binding"

[[record]]
binder = "Refmab #3 (antibody, human IgG1, V domains shown, Tested in IgG format; human IgG1 Fc silent (PG-LALA)) VH: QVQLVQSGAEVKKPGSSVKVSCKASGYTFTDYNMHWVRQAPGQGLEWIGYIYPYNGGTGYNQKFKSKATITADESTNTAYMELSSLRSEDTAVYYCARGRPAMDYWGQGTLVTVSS VL: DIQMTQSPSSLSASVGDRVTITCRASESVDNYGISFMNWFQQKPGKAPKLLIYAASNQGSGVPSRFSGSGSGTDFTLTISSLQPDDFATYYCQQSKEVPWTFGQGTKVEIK"
result = "2.2 % WT binding"


QUERY: Entry Refmab #1 (antibody, human IgG1, V domains shown, Tested in IgG format; human IgG1 (Absolute Antibody hP67.6, Cat. No. Ab00283-10.0); also called hP67.6) VH: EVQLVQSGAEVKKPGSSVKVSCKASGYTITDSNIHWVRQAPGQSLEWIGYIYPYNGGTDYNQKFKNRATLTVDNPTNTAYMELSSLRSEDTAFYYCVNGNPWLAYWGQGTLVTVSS VL: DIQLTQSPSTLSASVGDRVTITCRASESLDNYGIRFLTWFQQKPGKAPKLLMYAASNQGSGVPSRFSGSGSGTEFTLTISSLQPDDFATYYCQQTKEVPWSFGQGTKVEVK has what Mean % WT Binding?
RESULT: 6.9 % WT binding

Data credit: patent US20260242735A1
